For each record, write down the corresponding Fold Diff. (IC50 against SKY4-48-1).
tested.system: T1, mouse melanocortin-4 receptor (mouse, UniProt P56450 1-332)
T1 construct: whole, on cells; also called mMC4R; MC4R
T1 sequence (P56450 whole entry): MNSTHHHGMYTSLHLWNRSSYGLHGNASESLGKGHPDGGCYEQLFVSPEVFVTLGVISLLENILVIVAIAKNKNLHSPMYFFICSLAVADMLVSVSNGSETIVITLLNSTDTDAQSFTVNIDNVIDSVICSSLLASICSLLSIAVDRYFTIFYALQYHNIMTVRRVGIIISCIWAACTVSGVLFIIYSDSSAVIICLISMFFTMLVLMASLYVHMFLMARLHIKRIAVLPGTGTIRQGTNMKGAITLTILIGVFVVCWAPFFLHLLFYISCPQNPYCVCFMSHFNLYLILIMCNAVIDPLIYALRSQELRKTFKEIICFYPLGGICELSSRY
measurement.notes: 125I-NDP-MSH competitive displacement, HEK293 cells stably expressing mMC4R; negative = more potent than control
Description: A typical experiment utilized a 12-well format.
Square brackets hold non-standard residues; d marks the D form. dPhe(4-I) = N[C@H](Cc1ccc(I)cc1)C(=O)O; Bta = N[C@@H](Cc1csc2ccccc12)C(=O)O
API: value field is a number in fold; no unit string.

# lookup: Fold Diff. (IC50 against SKY4-48-1) of Ac-RR[dPhe(4-I)][Bta]-NH2 [SKY4-48-10, Ac-Arg-Arg-(pI)DPhe-3Bal-NH2] 1

Give the measured Fold Diff. (IC50 against SKY4-48-1) of Ac-RR[dPhe(4-I)]F-NH2 (SMILES CC(=O)N[C@@H](CCCNC(=N)N)C(=O)N[C@@H](CCCNC(=N)N)C(=O)N[C@H](Cc1ccc(I)cc1)C(=O)N[C@@H](Cc1ccccc1)C(N)=O) [SKY4-48-26, Ac-Arg-Arg-(pI)DPhe-Phe-NH2] . 4

I am curious: what Fold Diff. (IC50 against SKY4-48-1) value has been reported for Ac-HR[dPhe(4-I)][Bta]-NH2 [SKY4-48-11, Ac-His-Arg-(pI)DPhe-3Bal-NH2] ? 2

// lookup Fold Diff. (IC50 against SKY4-48-1) for Ac-FR[dPhe(4-I)][Bta]-NH2 [SKY4-48-15, Ac-Phe-Arg-(pI)DPhe-3Bal-NH2] 7

Values from patent US20170342107A1
